Values from patent US9040712B2

System: SMN protein
ASSAY: cellular SMN ELISA (SMN protein elevation)
Format: cell-based
CONDITION_DESCRIPTION: myoblast cell line derived from SMNdelta7 mouse model; 24 hours compound treatment; concentration range 100 pM-10 uM
I'd appreciate it if you could supply SMN Activity Fold (fold activation over DMSO control) values for the items below.
// return numeric value only (unit: fold, not printed)

Value lookup for SMN Activity Fold (fold activation over DMSO control); key = "COc1cc(-n2cccn2)ccc1-c1nnc(NC2CC(C)(C)N(C)C(C)(C)C2)s1"
2.88

What do we get for "Cn1cc(-c2ccc(-c3nnc(OC4CC(C)(C)NC(C)(C)C4)s3)c(Cl)c2)cn1" ?
2.28

What do we get for "Cc1nc(C)c(-c2cc(F)c(-c3nnc(N(C)C4CC(C)(C)NC(C)(C)C4)s3)cc2F)s1" ?
2.41

What do we get for "CN(c1nnc(-c2ncc(-c3cn[nH]c3)cc2F)s1)C1CC(C)(C)NC(C)(C)C1" ?
2.75

What do we get for "CN(c1nnc(-c2cc3ccccc3n(C)c2=O)s1)C1CC(C)(C)NC(C)(C)C1" ?
2.76

What do we get for "CN(c1nnc(-c2ccc(-n3cncn3)cc2Cl)s1)C1CC(C)(C)NC(C)(C)C1" ?
2.64

What do we get for "COc1cc(-n2cccn2)ccc1-c1nnc(N(C)C2CC(C)(C)NC(C)(C)C2)s1" ?
2.45

What do we get for "Cc1cc(-c2ccc(-c3nnc(N(C)C4CC(C)(C)NC(C)(C)C4)s3)c(F)c2)[nH]n1" ?
2.32

What do we get for "COc1cc(-c2cn[nH]c2)cc(F)c1-c1nnc(N(C)C2CC(C)(C)NC(C)(C)C2)s1" ?
2.36

What do we get for "COc1cc(-c2cnn(C)c2)ccc1-c1nnc(N2CC3(CCNCC3)C2)s1" ?
2.33

What do we get for "CN(c1nnc(-c2cc(F)c(-c3ccn[nH]3)cc2F)s1)C1CC(C)(C)NC(C)(C)C1" ?
2.86

What do we get for "CN(c1nnc(-c2ccc(-c3cn[nH]c3)cc2F)s1)C1CC(C)(C)NC(C)(C)C1" ?
3.06

What do we get for "CN(c1nnc(-c2ccc(-n3ccnc3)cc2Cl)s1)C1CC(C)(C)NC(C)(C)C1" ?
2.40

What do we get for "CN(c1nnc(-c2cc(F)c(-c3cn[nH]c3)cc2Cl)s1)C1CC(C)(C)NC(C)(C)C1" ?
3.16

What do we get for "CN(c1nnc(-c2c(O)cc(-c3cn[nH]c3)c(F)c2F)s1)C1CC(C)(C)NC(C)(C)C1" ?
2.67

What do we get for "COc1cc(-c2ccn(C)c(=O)c2)ccc1-c1nnc(N(C)C2CC(C)(C)NC(C)(C)C2)s1" ?
3.20
